target_or_test_system: human JMJD5 (Homo sapiens)
Sequence (Q8N371 whole entry): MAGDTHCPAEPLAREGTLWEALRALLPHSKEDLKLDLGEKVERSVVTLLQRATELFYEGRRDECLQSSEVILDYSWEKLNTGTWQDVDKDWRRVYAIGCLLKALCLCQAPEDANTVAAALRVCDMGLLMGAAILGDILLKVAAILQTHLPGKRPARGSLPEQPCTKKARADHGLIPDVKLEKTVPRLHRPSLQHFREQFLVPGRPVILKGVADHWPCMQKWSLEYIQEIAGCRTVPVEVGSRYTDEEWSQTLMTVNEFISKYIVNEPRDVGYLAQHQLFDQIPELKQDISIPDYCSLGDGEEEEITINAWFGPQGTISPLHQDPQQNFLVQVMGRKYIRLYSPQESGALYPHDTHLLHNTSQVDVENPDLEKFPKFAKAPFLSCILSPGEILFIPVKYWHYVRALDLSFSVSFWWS
method_description: SPE-MS JMJD5 inhibition assay (hydroxylation of RPS6 128–148 peptide)
Format: biochemical
condition_notes: Table 1; JMJD5 […], 2OG 2.0 μM, Fe(II) 2.0 μM, LAA 100 μM, RPS6 128–148 2.0 μM, pH 7.5, 20 °C; n = 3, mean ± SD; read-out: IC50 JMJD5
pIC50: −log10 of the molar value.
property_name: pIC50

[[record]]
compound = "O=C(O)c1ccnc(C(=O)O)c1NCCCc1ccccc1"
property_name = "pIC50"
censoring_qualifier = "="
numeric_readout = 4.71

[[record]]
compound = "O=C(O)c1ccnc(C(=O)O)c1NCc1ccccc1"
property_name = "pIC50"
censoring_qualifier = "="
numeric_readout = 5.02

[[record]]
compound = "O=C(O)c1cc(C(=O)O)c(C(F)(F)F)cn1"
property_name = "pIC50"
censoring_qualifier = "<"
numeric_readout = 4.30

[[record]]
compound = "CCC(Nc1c(C(=O)O)ccnc1C(=O)O)c1ccccc1 (centres unmarked)"
property_name = "pIC50"
censoring_qualifier = "="
numeric_readout = 5.12

[[record]]
compound = "O=C(O)c1cc(C(=O)O)c(F)cn1"
property_name = "pIC50"
censoring_qualifier = "="
numeric_readout = 5.35

